Experiment: Inhibition of H+/K+ ATPase in pig stomach
Type: tissue-based, Sus scrofa
# pIC50 values compiled below
Scale: pIC50 equals -log10([C]), with [C] in mol/L.

Request: Quickly give me recorded pIC50 for COC(=O)[C@]1(C)CCC[C@@]2(C)[C@H]1[C@H](OC(=O)c1ccccc1)C[C@H]1CC(=O)[C@@]3(C)CC[C@]12C3
Response: 5.52

Let us examine a further case.
Request: Quickly give me recorded pIC50 for COC(=O)[C@]1(C)CCC[C@@]2(C)[C@H]1[C@H](OC(=O)c1ccccc1)C[C@H]1C[C@@H](OC(C)=O)[C@@]3(C)CC[C@]12C3
Response: 5.52

The values you see were collected from ChEMBL document CHEMBL1158957.
